Provenance of the data: the supplement of paper PMC7877785

- Test summary: self-splicing fitness, log relative to wild type (ln ratio); higher = more splicing; Tetrahymena group I intron in knt gene, E. coli kanamycin selection, DiMSum; sequences stand for … in CUCUCU…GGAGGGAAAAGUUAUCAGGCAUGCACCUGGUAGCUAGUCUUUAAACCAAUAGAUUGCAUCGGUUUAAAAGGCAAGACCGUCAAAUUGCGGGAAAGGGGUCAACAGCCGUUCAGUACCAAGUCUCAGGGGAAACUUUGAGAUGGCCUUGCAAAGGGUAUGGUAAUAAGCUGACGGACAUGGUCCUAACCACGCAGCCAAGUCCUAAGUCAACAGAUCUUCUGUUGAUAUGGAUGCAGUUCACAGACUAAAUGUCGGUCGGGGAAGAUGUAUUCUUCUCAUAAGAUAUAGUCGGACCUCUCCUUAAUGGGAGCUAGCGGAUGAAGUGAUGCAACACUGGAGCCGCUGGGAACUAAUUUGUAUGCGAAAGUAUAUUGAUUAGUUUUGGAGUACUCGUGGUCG;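 also: selection with 25 µg/mL kanamycin versus none on LB agar overnight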
- Assay setup: 30 °C
Reported values of self-splicing fitness (ln) for individual entries
Respond using a number only.

{"Sequence data": "UCCGAGCAAUAUUACGGGGU", "Observed value": -2.7}
{"Sequence data": "ACUAAGCAAUAUUACGUGCC", "Observed value": -1.22}
{"Sequence data": "CAACAGCAAUAUUACGUGUG", "Observed value": -3.55}
{"Sequence data": "GAUUAGCAAUAUUACGGUCC", "Observed value": -3.27}

Note to self: self-splicing fitness (ln) recorded for AUACAGCAAUAUUACGCCGG was -2.34

Note to self: self-splicing fitness (ln) recorded for CCGAAGCAAUAUUACGGGGG was -4.9

Note to self: self-splicing fitness (ln) recorded for UCCAAGCAAUAUUACGUAAG was -4.14

Note to self: self-splicing fitness (ln) recorded for AAAAAGCAAUAUUACGGGUA was -1.61

Note to self: self-splicing fitness (ln) recorded for CGAGAGCAAUAUUACGAGGG was -4.22

Note to self: self-splicing fitness (ln) recorded for UAGCAGCAAUAUUACGGCCA was 0.54

Note to self: self-splicing fitness (ln) recorded for AUUUAGCAAUAUUACGGCGU was -0.211

Note to self: self-splicing fitness (ln) recorded for UGGGAGCAAUAUUACGUCAC was -1.96

Note to self: self-splicing fitness (ln) recorded for GUGUAGCAAUAUUACGUUAU was -2.81

Note to self: self-splicing fitness (ln) recorded for GCCGAGCAAUAUUACGUCGU was -0.646
